Values from patent US20070059299A1

Test system: acyclovir-susceptible reference strain SC16
Assay: Antiviral susceptibility testing by ELISA on HEp-2 cells, strain SC16
Format: cell-based, HSV 1
Conditions: HEp-2, read-out: Susceptibility of strain SC16 (concentration causing 50% inhibition of viral replication, IC50), median
Property: IC50 (µM)
// note: answer is a bare numeric in µM

Compound	Unit Abbreviation	IC50
O=C(O)P(=O)(O)O	µM	224

Continue with the compound presented below.
# assay system acyclovir-susceptible reference strain SC16: give IC50 of CC(C=NNC(=N)N)=NNC(=N)N [MGBG, methylglyoxal bis(guanylhydrazone)]
103

----------
System: acyclovir-susceptible reference strain SC16
Test: Antiviral susceptibility testing by ELISA on HEp-2 cells, strain SC16
Assay type: cell-based, HSV 1
Conditions: HEp-2 cells, ELISA; median of at least three assays; drugs diluted in μM; read-out: Susceptibility of strain SC16 (concentration causing 50% inhibition of viral replication, IC50), median
Property: IC50 (µM)
Output spec: scalar in µM, unitless text.

Report the value of IC50 obtained on acyclovir-susceptible reference strain SC16 for Nc1nc2c(ncn2COCCO)c(=O)[nH]1 [Acyclovir, acyclovir] .
28
